system-tested: T1, histidine-tagged human Siglec-7 (NovoProtein) (human, UniProt Q9Y286 19-353)
T1 construct: Bought protein; also called recombinant human Siglec-7; recombinant Siglec-7; not shown: histidine tag
T1 sequence (Q9Y286 19-353 limits assumed): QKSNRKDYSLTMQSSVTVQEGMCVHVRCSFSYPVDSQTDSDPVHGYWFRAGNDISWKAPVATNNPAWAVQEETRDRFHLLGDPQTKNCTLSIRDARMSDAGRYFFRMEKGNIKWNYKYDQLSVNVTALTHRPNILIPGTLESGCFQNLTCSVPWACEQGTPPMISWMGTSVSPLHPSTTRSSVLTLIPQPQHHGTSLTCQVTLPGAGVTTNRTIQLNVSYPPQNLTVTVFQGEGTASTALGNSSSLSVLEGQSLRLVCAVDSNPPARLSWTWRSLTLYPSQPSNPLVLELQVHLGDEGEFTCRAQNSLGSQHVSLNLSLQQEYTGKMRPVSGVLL
procedure-details: BLI, antibody captured
# kon per record follows

Examples from the recorded data:
binder	kon
S7AB-H8.11 (antibody, V domains shown) VH: QVQLVQSGAEVKKPGASVKVSCKASGYAFTETWMNWVRQAPGQGLEWIGRIFPGLGHTNYAQKFQGRATLTEDTSTSTAYMELSSLRSEDTAVYYCARDYSDYYFDYWGQGTLVTVSS VL: DIQMTQSPSSLSASVGDRVTITCRGSQDINTYLNWYQQKPGKAPKLLIYYTSRLHSGVPSRFSGSGSGTDYTLTISSLQPEDFATYYCQGGNTLPWTFGQGTKLEIK	3140 M⁻¹ s⁻¹
S7AB-H8.36 (antibody, V domains shown) VH: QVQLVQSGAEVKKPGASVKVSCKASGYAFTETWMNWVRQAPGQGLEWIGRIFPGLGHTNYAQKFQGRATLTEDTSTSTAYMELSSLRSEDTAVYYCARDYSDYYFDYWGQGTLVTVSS VL: DIQMTQSPSSLSASVGDRVTITCRGSQDINTYLNWYQQKPGKAPKLLIYYTSRLHSGVPSRFSGSGSGTDYTLTISSLQPEDFATYYCQQGNVLPWTFGQGTKLEIK	162000 M⁻¹ s⁻¹
S7AB-H8.23 (antibody, V domains shown) VH: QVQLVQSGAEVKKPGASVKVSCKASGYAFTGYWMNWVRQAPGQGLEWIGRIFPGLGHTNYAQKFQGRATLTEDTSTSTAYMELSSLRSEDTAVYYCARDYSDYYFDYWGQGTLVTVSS VL: DIQMTQSPSSLSASVGDRVTITCRASEDINTYLNWYQQKPGKAPKLLIYYTSRLHSGVPSRFSGSGSGTDYTLTISSLQPEDFATYYCQQGGTLPWTFGQGTKLEIK	235000 M⁻¹ s⁻¹
S7AB-H8.9 (antibody, V domains shown) VH: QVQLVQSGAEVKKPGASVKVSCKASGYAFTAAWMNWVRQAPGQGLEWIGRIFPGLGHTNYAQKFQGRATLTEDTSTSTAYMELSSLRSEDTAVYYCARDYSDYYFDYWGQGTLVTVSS VL: DIQMTQSPSSLSASVGDRVTITCRGSQDINTYLNWYQQKPGKAPKLLIYYTSRLHSGVPSRFSGSGSGTDYTLTISSLQPEDFATYYCQQGNTKPWTFGQGTKLEIK	91400 M⁻¹ s⁻¹

Asked: Name the recorded kon of the item S7AB-H8.6 (antibody, V domains shown) VH: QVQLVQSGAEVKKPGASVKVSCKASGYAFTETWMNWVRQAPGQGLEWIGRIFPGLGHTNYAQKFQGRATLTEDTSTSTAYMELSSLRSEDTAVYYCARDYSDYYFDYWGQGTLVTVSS VL: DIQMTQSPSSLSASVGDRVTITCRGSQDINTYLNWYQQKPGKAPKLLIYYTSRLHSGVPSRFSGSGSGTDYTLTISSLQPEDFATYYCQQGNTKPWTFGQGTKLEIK in your answer.
Given back: 25500 M⁻¹ s⁻¹
